Target Under Test: SCD5 (Homo sapiens)
Construct: host or cells: S. cerevisiae ole1Δ strain (W303 pdr1Δ pdr3Δ background), plasmid pRS316 with TDH3 promoter and CYC1 terminator
Assay Text: Growth inhibition of humanized yeast strain expressing SCD5 as sole desaturase
Type: cell-based
Test Context: humanized yeast strain expressing SCD5
pIC50: −log10 of the molar value.
Endpoint Label: pIC50

Example compounds with recorded pIC50:
Cc1nn(C)c2cc(-c3noc(C4CCN(C(=O)CNC(=O)c5ccccc5)CC4(F)F)n3)ccc12 (stereo not drawn) [Compound 244] | < 4.35
CCOc1cnc(-c2noc(C3CCN(C(=O)CN4Cc5ccccc5C4=O)CC3)n2)cc1OC [Compound 147] | < 4.35
Cc1nn(C)c2cc(-c3noc(C4CCN(C(=O)[C@@H]5CN(c6ccccc6)C(=O)O5)CC4)n3)ccc12 [Compound 149] | < 4.35
C=C(C)c1ccc(C(=O)N2CCC(c3nc(-c4ccc5cnn(C)c5c4)no3)CC2)nc1 [Compound 501] | 4.67
CC(C)n1ncc2ccc(-c3noc([C@@H]4[C@@H]5CN(C(=O)OC(C)(C)C)C[C@@H]54)n3)cc21 [Compound 498] | < 4.35

Request: // map COC(=O)N1CCC(c2nc(-c3ccc4cnn(C(C)C)c4c3)no2)CC1 [Compound 355] to recorded pIC50 (system: SCD5 (Homo sapiens))
Response: < 4.35

Request: // map CC(C)n1ncc2ccc(-c3nc(C4CCN(C(=O)c5ccccn5)CC4)no3)cc21 [Compound 499] to recorded pIC50 (system: SCD5 (Homo sapiens))
Response: 5.96

---

Target Under Test: SCD5 (Homo sapiens, UniProt Q86SK9)
Construct: host or cells: S. cerevisiae ole1Δ strain (W303 pdr1Δ pdr3Δ background), plasmid pRS316 with TDH3 promoter and CYC1 terminator
Sequence (Q86SK9 whole entry): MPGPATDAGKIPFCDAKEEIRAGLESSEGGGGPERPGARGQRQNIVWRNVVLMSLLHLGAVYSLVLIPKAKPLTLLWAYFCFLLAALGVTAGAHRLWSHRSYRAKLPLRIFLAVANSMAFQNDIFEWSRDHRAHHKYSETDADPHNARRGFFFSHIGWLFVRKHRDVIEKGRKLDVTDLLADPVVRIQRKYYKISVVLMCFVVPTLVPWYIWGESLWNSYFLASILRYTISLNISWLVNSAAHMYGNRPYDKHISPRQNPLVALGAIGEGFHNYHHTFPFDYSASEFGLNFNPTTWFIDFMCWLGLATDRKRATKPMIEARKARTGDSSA
Assay Text: Growth inhibition of humanized yeast strain expressing SCD5 as sole desaturase
Assay type: cell-based
Test Context: humanized yeast strain expressing SCD5
Short version: SCD5 % Max Inhibition at least 40% is 1, less is -1.

Examples from the recorded data:
Cc1nn(C)c2cc(-c3noc(C4CCN(C(=O)CNC(=O)c5ccc(C#N)cc5)CC4)n3)ccc12 [Compound 267] | -1
Cn1c(=O)[nH]c2ccc(-c3noc(C4CCN(C(=O)C5CC(=O)N(c6ccccc6)C5)CC4)n3)cc21 (stereo not shown) [Compound 134] | 1
Cc1nn(C)c2cc(-c3noc(C4CCN(C(=O)CN5Cc6ccccc6C5=O)CC4)n3)cnc12 [Compound 200] | 1

Request: Please check the record O=C(CNC(=O)c1ccccc1)NCCc1nc(-c2ccccc2)no1 [Compound 485] and state if its SCD5 % Max Inhibition is at or above 40%.
Response: 1

Request: Please check the record Cc1nn(C)c2cc(-c3noc(C4CCN(C(=O)[C@H]5CN(c6ccccc6)C(=O)O5)CC4)n3)ccc12 [Compound 173] and state if its SCD5 % Max Inhibition is at or above 40%.
Response: 1

Request: Please check the record CC(C)n1cc2ccc(-c3noc(C4CCN(C(=O)CNC(=O)c5ccccc5)CC4)n3)cc2n1 [Compound 181] and state if its SCD5 % Max Inhibition is at or above 40%.
Response: 1

Request: Please check the record Cc1nn(C)c2cc(-c3noc(C4CCN(C(=O)C5CN(C(=O)c6ccccc6)C5)CC4)n3)ccc12 [Compound 236] and state if its SCD5 % Max Inhibition is at or above 40%.
Response: -1

---

Target Under Test: SCD1 (Homo sapiens, UniProt O00767)
Construct: host or cells: S. cerevisiae ole1Δ strain (W303 pdr1Δ pdr3Δ background), plasmid pRS316 with TDH3 promoter and CYC1 terminator
Sequence (O00767 whole entry): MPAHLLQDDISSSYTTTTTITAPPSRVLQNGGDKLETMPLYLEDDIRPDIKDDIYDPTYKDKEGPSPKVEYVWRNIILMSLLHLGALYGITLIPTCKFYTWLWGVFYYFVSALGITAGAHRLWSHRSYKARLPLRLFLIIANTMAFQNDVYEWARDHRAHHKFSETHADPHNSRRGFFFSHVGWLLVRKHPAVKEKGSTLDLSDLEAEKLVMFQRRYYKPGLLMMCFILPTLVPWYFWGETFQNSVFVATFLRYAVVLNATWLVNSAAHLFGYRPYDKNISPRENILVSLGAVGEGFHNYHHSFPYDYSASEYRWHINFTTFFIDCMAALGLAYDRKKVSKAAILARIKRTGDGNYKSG
Assay Text: Growth inhibition of humanized yeast strain expressing SCD1 as sole desaturase
Type: cell-based
Test Context: humanized yeast strain expressing SCD1
Endpoint Label: SCD1 % Max Inhibition (%)
Kindly answer with a numeric value in %, unit omitted.

Example molecules with recorded SCD1 % Max Inhibition:
O=C([C@H]1CC(=O)N(c2ccccc2)C1)N1CCC(c2nc(-c3ccc(Br)s3)no2)CC1 | 3.09
CC(C)n1ncc2ccc(-c3noc(N4CCN(C(=O)c5ccccc5Cl)CC4)n3)cc21 | 70.82
O=C(C1CC(=O)N(c2ccccc2)C1)N1CCC(c2nc(-c3ccc4c(c3)COC4)no2)CC1 (centres unmarked) | 87.27

Request: // map CC(C)c1ccc(C(=O)N2CCC(c3noc(-c4cccc(F)c4)n3)CC2)cc1 to recorded SCD1 % Max Inhibition (system: SCD1 (Homo sapiens, UniProt O00767))
Response: 1.65

Request: // map Cc1ncc2ccc(-c3noc(C4CCN(C(=O)CNC(=O)c5ccccc5)CC4)n3)cn12 to recorded SCD1 % Max Inhibition (system: SCD1 (Homo sapiens, UniProt O00767))
Response: 88.23

Request: // map COc1ccccc1-c1noc(C2CCN(C(=O)CNC(=O)c3ccc(C)c(C)c3)CC2)n1 to recorded SCD1 % Max Inhibition (system: SCD1 (Homo sapiens, UniProt O00767))
Response: 101.47

Request: // map COc1ccc(-c2noc(C3CCN(C(=O)[C@H](NC(=O)c4ccccc4)C4CC4)CC3)n2)cc1OC to recorded SCD1 % Max Inhibition (system: SCD1 (Homo sapiens, UniProt O00767))
Response: 83.53

Request: // map COc1ccc(-c2noc(C3CCN(C(=O)N4CCCCC4)CC3)n2)cc1OC to recorded SCD1 % Max Inhibition (system: SCD1 (Homo sapiens, UniProt O00767))
Response: 82.41

---

Target Under Test: SCD5 (Homo sapiens, UniProt Q86SK9)
Construct: host or cells: S. cerevisiae ole1Δ strain (W303 pdr1Δ pdr3Δ background), plasmid pRS316 with TDH3 promoter and CYC1 terminator
Assay Text: Growth inhibition of humanized yeast strain expressing SCD5 as sole desaturase
Assay type: cell-based
Test Context: humanized yeast strain expressing SCD5
The compounds listed here are annotated with their SCD5 % Max Inhibition.
Kindly answer with a numeric value in %, unit omitted.

Example compounds with recorded SCD5 % Max Inhibition:
CCn1nc2cc(-c3noc(C4CCN(C(=O)OC(C)(C)C)CC4)n3)ccc2c1C | 43.5
Cc1nn(C)c2cc(-c3noc(C4CCN(C(=O)CNC(=O)c5ccncc5)CC4)n3)ccc12 | 36.45
CCOc1ccc(-c2noc(C3CCN(C(=O)[C@H]4CN(c5ccccc5)C(=O)O4)CC3)n2)cc1OC | 86.53
Cc1nn(C)c2cc(-c3noc(C4CCN(C(=O)CNC(=O)c5ccccc5)CC4)n3)cnc12 | 50.61
CCOc1ccc(-c2noc(C3CCN(C(=O)[C@@H]4CN(c5ccccc5)C(=O)O4)CC3)n2)cc1OC | 68.80
O=C(C1CC(=O)N(c2cccc(Cl)c2)C1)N1CCC(c2nc(N3CCC4(CC3)COC4)no2)CC1 (stereo not shown) | 67.2

Could you now consider this next compound?
Request: // map O=C(C1CC(=O)N(c2ccccc2)C1)N1CCC(c2nc(-c3ccc4nonc4c3)no2)CC1 (stereo not shown) to recorded SCD5 % Max Inhibition (system: SCD5 (Homo sapiens, UniProt Q86SK9))
Response: 73.90

---

Target Under Test: SCD1 (Homo sapiens, UniProt O00767)
Construct: host or cells: S. cerevisiae ole1Δ strain (W303 pdr1Δ pdr3Δ background), plasmid pRS316 with TDH3 promoter and CYC1 terminator
Assay Text: Growth inhibition of humanized yeast strain expressing SCD1 as sole desaturase
Type: cell-based
Test Context: growth inhibition of humanized yeast strain expressing human SCD1
pIC50: −log10 of the molar value.
Endpoint Label: pIC50

CC(C)(C)CC(=O)N1CCN(c2nc(-c3ccc4cnn(C5COC5)c4c3)no2)CC1 [Compound 619] | < 4.35
CC(C)(C)CC(=O)N1CC(c2nc(-c3ccc4cnn(C5COC5)c4c3)no2)C1 [Compound 707] | < 4.35
CC(C)n1ncc2ccc(-c3nc(C4CCN(C(=O)c5sccc5Cl)CC4)no3)cc21 [Compound 715] | < 4.35
CC(C)n1ncc2ccc(-c3noc(C4CCN(C(=O)C56CC(C5)C6)CC4)n3)cc21 [Compound 705] | 4.84
CC(C)n1ncc2ccc(-c3noc(C4CCN(C(=O)N5CCC5(C)C)CC4)n3)cc21 [Compound 684] | < 4.35
CC1(OC(=O)N2CCN(c3noc(-c4ccc5cnn(C6COC6)c5c4)n3)CC2)CC1 [Compound 735] | 5.40
CC(C)(C)OC(=O)N1CCC(c2nc(-c3cccc(C(=O)N4CCC4)c3)no2)CC1 [Compound 741] | < 4.35

Request: // map CC(C)n1ncc2ccc(-c3noc(C4(F)CCN(C(=O)CC5(C)CC5)CC4)n3)cc21 [Compound 623] to recorded pIC50 (system: SCD1 (Homo sapiens, UniProt O00767))
Response: < 4.35

---

Target Under Test: SCD1 (Homo sapiens)
Construct: host or cells: S. cerevisiae ole1Δ strain (W303 pdr1Δ pdr3Δ background), plasmid pRS316 with TDH3 promoter and CYC1 terminator
Assay Text: Growth inhibition of humanized yeast strain expressing SCD1 as sole desaturase
Format: cell-based
Test Context: humanized yeast strain expressing SCD1
Endpoint Label: IC50

Request: Query (compound): CCOc1ccc(-c2noc(C3CCN(C(=O)CNC(=O)c4ccccc4)CC3)n2)cc1OC [Compound 155] ; field requested: IC50
Response: > 45 µM

Request: Query (compound): COc1ccc(CN2CC(C(=O)N3CCC(c4nc(-c5ccc6c(C)nn(C)c6c5)no4)CC3)CC2=O)c(OC)c1 (stereo not drawn) [Compound 124] ; field requested: IC50
Response: > 45 µM
